- Study system: Full length human CD40 (huCD40) on cells (human, UniProt P25942 21-277)
- Sequence (P25942 21-277): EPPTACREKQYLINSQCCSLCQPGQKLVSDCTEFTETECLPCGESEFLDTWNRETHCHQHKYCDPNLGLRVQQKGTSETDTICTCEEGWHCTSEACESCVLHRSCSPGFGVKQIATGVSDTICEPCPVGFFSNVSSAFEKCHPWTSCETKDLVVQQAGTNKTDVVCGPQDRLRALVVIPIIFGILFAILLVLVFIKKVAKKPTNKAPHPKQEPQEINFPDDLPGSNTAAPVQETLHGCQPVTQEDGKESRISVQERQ
- Assay procedure: cell-based or functional assay

>  <Binder>
C40M103 (antibody, human IgG1, lambda, V domains shown, Variant of C40M18 (VH C40H48, VL C40L69; LCDR1 cysteine mutated); cloned as IgG1) VH: EVQLVESGGGLVQPGGSLRLSCAASGFTFSSYAMSWVRQAPGKGLEWVSIINNNVGRTYYADSVKGRFTISRDNSKNTLYLQMNSLRAEDTAVYYCAKEGGDYYYYGMDVWGQGTTVTVSS VL: SYELTQPPSVSVSPGQTASITCSGDKLGDKYVSWYQQKPGQSPVLVIYQDSKRPSGIPERFSGSNSGNTATLTISGTQAMDEADYYCQAWVSSTVVFGGGTKLTVLG

>  <EC50, Human DC (HLA-DR)>
0.388 µg/mL

$$$$
>  <Binder>
C40M9 (antibody, human IgG1, lambda, V domains shown) VH: QLQLQESGPGLVKPSEILSLTCTVSGGSISSSSYYWGWIRQPPGKGLEWIGNIYYRGDTYYSPSLKSRVTISVDTSKNQFSLKLNSVTAADTAVYYCAKGFRFDYWGQGTLVTVSS VL: QSALTQPPSASGSPGQSVTISCTGTSSDVGGYNYVSWYQQHPGKAPKLMIYEVSKRPSGVPDRFSGSKSGNTASLTVSGLQAEDEADYYCSSYAGSNNLVFGGGTKLTVLG

>  <EC50, Human DC (HLA-DR)>
0.118 µg/mL

$$$$
>  <Binder>
C40M104 (antibody, human IgG1, lambda, V domains shown, Variant of C40M18 (VH C40H48, VL C40L68; LCDR1 cysteine mutated); cloned as IgG1) VH: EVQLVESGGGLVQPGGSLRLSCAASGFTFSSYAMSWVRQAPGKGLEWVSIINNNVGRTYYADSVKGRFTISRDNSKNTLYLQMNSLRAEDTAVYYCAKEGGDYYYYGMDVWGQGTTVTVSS VL: SYELTQPPSVSVSPGQTASITCSGDKLGDKYVSWYQQKPGQSPVVVIYQDSKRPSGIPERFSGSNSGNTATLTISGTQAMDEAYYYCQAWVSSTVVFGGGTKLTVLG

>  <EC50, Human DC (HLA-DR)>
0.166 µg/mL

$$$$
>  <Binder>
C40M105 (antibody, human IgG1, lambda, V domains shown) VH: QLQLQESGPGLVKPSETLSLTCTVSGGSISSSSYYWGWIRQPPGKGLEWIGNIYYRGDTYYSPSLKSRVTISVDTSKNQFSLKLSSVTAADTAVYYCARGFRFDYWGQGTLVTVSS VL: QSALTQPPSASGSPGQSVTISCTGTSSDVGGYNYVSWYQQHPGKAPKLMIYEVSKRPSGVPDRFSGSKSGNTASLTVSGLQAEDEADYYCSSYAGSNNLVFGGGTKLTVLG

>  <EC50, Human DC (HLA-DR)>
2.97 µg/mL

$$$$
>  <Binder>
C40M18 (antibody, human IgG1, lambda, V domains shown, Full-length IgG1/lambda; from OmniRat (OMT); VH C40H48, VL C40L64) VH: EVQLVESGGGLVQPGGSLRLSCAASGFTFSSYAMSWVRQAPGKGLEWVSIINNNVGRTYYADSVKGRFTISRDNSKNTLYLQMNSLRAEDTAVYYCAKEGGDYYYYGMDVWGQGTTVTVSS VL: SYELTQPPSVSVSPGQTASITCSGDKLGDKYVCWYQQKPGQSPVVVIYQDSKRPSGIPERFSGSNSGNTATLTISGTQAMDEAYYYCQAWVSSTVVFGGGTKLTVLG

>  <EC50, Human DC (HLA-DR)>
0.166 µg/mL

$$$$
